- measured-target: LXRβ receptor (Gal-hLXRβ-DEF in HG5LN HeLa cells) (Homo sapiens, UniProt P55055)
- Construct: stably transported with the Gal-hLXRβ-DEF plasmid; expressed in transfected cells; host or cells: HG5LN cells (HeLa stably transfected with the (17mer)5-bGlob-Luc reporter)
- Sequence (P55055 222-460 limits assumed): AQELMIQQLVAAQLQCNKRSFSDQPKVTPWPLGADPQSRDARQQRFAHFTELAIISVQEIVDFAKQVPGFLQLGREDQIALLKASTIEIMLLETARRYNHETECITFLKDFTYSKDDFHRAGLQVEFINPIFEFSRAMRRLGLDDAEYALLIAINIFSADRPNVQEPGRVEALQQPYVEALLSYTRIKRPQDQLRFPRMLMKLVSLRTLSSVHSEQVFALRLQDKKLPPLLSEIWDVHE
- method-notes: LXRβ transactivation test (luciferase reporter), determination of Kd apparent by crossover curves against a reference agonist
- Format: cell-based
- test-context: KdApp, apparent dissociation constant, Schild regression; LXRβ receptor
pKd: −log10 of the molar value.
# pKd per record follows
assay-endpoint: pKd

* CCCC(=O)C1(c2ccccc2)CCN(C(=O)C(C)(C)Oc2ccccc2Cl)CC1 [Compound 47] | 5.70
* CC(=O)C1(c2ccccc2)CCN(C(=O)CNC(=O)c2ccc(C3CCCCC3)cc2)CC1 [Compound 18] | 5.70
* CCCC(=O)C1(c2ccccc2)CCN(C(=O)CNC(=O)c2ccc(C3CCCCC3)cc2)CC1 [Compound 54] | 5.70
